Kindly supply the reported pKd values for the records listed here.
System: secretory immunoglobulin A (sIgA) (Homo sapiens)
experimental_protocol: SPR
measurement_context: MK4 (adenine-residue-modified dA) at A after the 5' primer region GGTTTGGACGCAATCTCCCTAATC; 3' poly(dT)20 added for SPR; SPR buffer 1 mM MgCl2 pH 7.4
FYI, pKd means -log10 of a concentration in mol per litre.

Exercise: What value of pKd has been recorded for this entry: GGTTTGGACGCAATCTCCCTAATCGATCTAGATGGTCTCGGGTATGGCTAGATAGAAACTACAATGGGCGGGCTTATC [MK4 aptamer SEQ 4]
Key: 7.76

Exercise: Need pKd, item GGTTTGGACGCAATCTCCCTAATCAGATGATATCGAGATGCGAAGCGACCGCATGAAACTACAATGGGCGGGCTTATC [MK4 aptamer SEQ 2]
Key: 8.12

Exercise: GET /values?readout=pKd&item= GGTTTGGACGCAATCTCCCTAATCAAGCCACGGAGAGTCCGAGGTGACCATTAAGCAGGAAACTACAATGGGCGGGCTTA [MK4 aptamer SEQ 3]
Key: 8.12

----------
System: secretory immunoglobulin A (sIgA) (Homo sapiens)
experimental_protocol: SPR
measurement_context: NG7 (guanine-residue-modified T) at T after the 5' primer region GGTTTGGACGCAATCTCCCTAATC; 3' poly(dA)20 added for SPR; SPR buffer 1 mM MgCl2 pH 7.4
parameter: pKd
# pKd: negative log10 of molar concentration; output just the value

Exercise: Requested read-out: pKd. Entry: GGTTTGGACGCAATCTCCCTAATCTGCTGATGTTTGTATTTCAAATTAGCCGCAGAAACTACAATGGGCGGGCTTATC [NG7 aptamer SEQ 5]
Key: 7.93

Exercise: What value of pKd has been recorded for this entry: GGTTTGGACGCAATCTCCCTAATCAGACAATATTAGAGTGTTACCACCTGTGATGAAACTACAATGGGCGGGCTTATC [NG7 aptamer SEQ 7]
Key: 7.42

Exercise: State the recorded pKd for this entry: GGTTTGGACGCAATCTCCCTAATCTAAATAGATTTCACAGTGGATCCTTCAGAGGAAACTACAATGGGCGGGCTTATC [NG7 aptamer SEQ 6]
Key: 7.94

----------
Task for the reader: assign each of the following sequences its reported Kd.
Tested on: secretory immunoglobulin A (sIgA) (Homo sapiens)
experimental_protocol: SPR
measurement_context: KS9 (adenine-residue-modified T) at the T after GCAATCTCCCTAATC; 3' poly(dA)20 added for SPR; SPR buffer 1 mM MgCl2 pH 7.4
Could you give me the number in nM? Just the number is fine.

Exercise: Tell me the measured Kd of GCAATCTCCCTAATCGTATATCAAGCAGATGTGTTCACTTGGGGAG [KS9 aptamer SEQ 17] , please.
Key: 12.9

Exercise: Entry GCAATCTCCCTAATCAAAGATATGCTAAGATAGATAGTTTGGCTTG [KS9 aptamer SEQ 19] : reported Kd = ?
Key: 8

Exercise: Data request, read-out Kd, for GCAATCTCCCTAATCTTTATACGTATGGACTTAGGCTTTGTTATAGAAAC [KS9 aptamer SEQ 21]
Key: 2.1

----------
Test system: secretory immunoglobulin A (sIgA) (Homo sapiens)
experimental_protocol: SPR
measurement_context: NG7 (guanine-residue-modified T) at underlined T i.e. T after GCAATCTCCCTAATC; 3' poly(dA)20 added for SPR; SPR buffer 1 mM MgCl2 pH 7.4
parameter: pKd
Note: pKd values are expressed as the negative base-10 logarithm of concentration in M.

Exercise: May I ask what pKd has been recorded for GCAATCTCCCTAATCTGCTGATGTTTGTATTTCAAATTAGCCGCAG [NG7 aptamer SEQ 14] ?
Key: 8.00

Exercise: Find the recorded pKd belonging to GCAATCTCCCTAATCTGCTGATGTTTGTATTTCAAATTAGC [NG7 aptamer SEQ 15] and report it.
Key: 8.59

----------
Hi there, I'd appreciate the recorded Kd for every entry that follows.
Test system: secretory immunoglobulin A (sIgA) (Homo sapiens)
experimental_protocol: SPR
measurement_context: KS9 (adenine-residue-modified T) at T after the 5' primer region GGTTTGGACGCAATCTCCCTAATC; 3' poly(dA)20 added for SPR; SPR buffer 1 mM MgCl2 pH 7.4
Only the number, expressed in nM, is required.

Exercise: I'd like to know its Kd. The sequence in question is GGTTTGGACGCAATCTCCCTAATCCTATCTGTTTTATCAATTGTAGCAAGTTATGAAACTACAATGGGCGGGCTTATC [KS9 aptamer SEQ 12]
Key: 9

Exercise: Bench note: what Kd did GGTTTGGACGCAATCTCCCTAATCGTATATCAAGCAGATGTGTTCACTTGGGGAGAAACTACAATGGGCGGGCTTATC [KS9 aptamer SEQ 8] show?
Key: 10

Exercise: Field request: Kd | item: GGTTTGGACGCAATCTCCCTAATCTTTATACGTATGGACTTAGGCTTTGTTATAGAAACTACAATGGGCGGGCTTATC [KS9 aptamer SEQ 11]
Key: 1.3

Exercise: I am curious: what Kd value has been reported for GGTTTGGACGCAATCTCCCTAATCACCTGTACTGGTTATTATGCCTGCCAACATGAAACTACAATGGGCGGGCTTATC [KS9 aptamer SEQ 10] ?
Key: 30.2

Exercise: Fill blank: measured Kd of the sequence GGTTTGGACGCAATCTCCCTAATCAAAGATATGCTAAGATAGATAGTTTGGCTTGAAACTACAATGGGCGGGCTTATC [KS9 aptamer SEQ 9] is ____.
Key: 4.8
